Source: patent US6124323A

- system: NMDA receptor subunits 1A/2C (Rattus norvegicus, UniProt P35439+Q00961)
- Construct: expressed in transfected cells; host or cells: Xenopus laevis oocytes (cRNA injection; clones from Dr. P. H. Seeburg)
- Sequence (Q00961 20-1237, other chains not shown): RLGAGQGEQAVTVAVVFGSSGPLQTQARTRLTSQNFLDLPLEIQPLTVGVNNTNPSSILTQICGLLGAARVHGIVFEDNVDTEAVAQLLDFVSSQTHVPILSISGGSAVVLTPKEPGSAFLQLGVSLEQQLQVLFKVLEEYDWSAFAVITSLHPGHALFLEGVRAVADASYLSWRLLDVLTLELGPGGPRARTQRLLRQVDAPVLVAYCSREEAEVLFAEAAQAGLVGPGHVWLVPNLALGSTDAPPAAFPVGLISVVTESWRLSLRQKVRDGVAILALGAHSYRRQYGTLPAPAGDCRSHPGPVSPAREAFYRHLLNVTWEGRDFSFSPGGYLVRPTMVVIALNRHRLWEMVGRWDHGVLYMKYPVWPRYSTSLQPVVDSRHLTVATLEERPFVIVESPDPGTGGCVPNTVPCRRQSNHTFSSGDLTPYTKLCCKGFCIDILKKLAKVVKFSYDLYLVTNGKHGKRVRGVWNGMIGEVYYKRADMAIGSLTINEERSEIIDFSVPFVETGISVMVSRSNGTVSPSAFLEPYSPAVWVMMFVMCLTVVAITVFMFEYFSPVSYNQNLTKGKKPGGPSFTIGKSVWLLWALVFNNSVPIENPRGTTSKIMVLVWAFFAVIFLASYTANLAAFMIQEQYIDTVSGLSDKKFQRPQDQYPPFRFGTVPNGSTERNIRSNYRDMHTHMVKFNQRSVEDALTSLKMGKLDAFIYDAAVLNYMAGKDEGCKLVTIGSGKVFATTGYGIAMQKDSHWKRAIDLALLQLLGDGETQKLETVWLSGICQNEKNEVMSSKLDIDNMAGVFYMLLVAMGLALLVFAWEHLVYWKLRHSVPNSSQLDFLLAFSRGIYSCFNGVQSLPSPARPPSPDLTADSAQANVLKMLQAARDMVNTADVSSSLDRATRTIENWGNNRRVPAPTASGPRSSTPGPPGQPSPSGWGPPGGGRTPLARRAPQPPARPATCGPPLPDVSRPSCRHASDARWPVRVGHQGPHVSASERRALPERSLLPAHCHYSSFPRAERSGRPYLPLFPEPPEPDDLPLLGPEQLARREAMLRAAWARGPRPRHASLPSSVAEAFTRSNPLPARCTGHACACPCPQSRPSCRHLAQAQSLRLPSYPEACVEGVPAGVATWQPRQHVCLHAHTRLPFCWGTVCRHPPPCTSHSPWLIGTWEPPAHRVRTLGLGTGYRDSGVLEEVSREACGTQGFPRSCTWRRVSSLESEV
- test description: Electrophysiological assay at NMDA receptor subunits expressed in Xenopus oocytes, 1A/2C
- Type: cell-based
- measurement context: Xenopus oocytes; glutamate 100 μm and glycine 1-100 μm; read-out: Subunits IC50, 1A/2C
pIC50: −log10 of the molar value. Counter-ions that a name gives are not always drawn.
A collection of compounds and their measured pIC50

Some compounds with known pIC50 results, for comparison:
* O=c1[nH]c2cccc(OCCN3CCC(Cc4ccccc4)CC3)c2[nH]c1=O | < 4.00
* O=C1Cc2cc(OCCN3CCC(Cc4ccc(F)cc4)CC3)ccc2N1 | < 3.52
* O=C1Cc2cc(OCCN3CCC(Cc4ccccc4)CC3)ccc2N1 | < 3.52
* c1ccc(CC2CCN(CCOc3ccc4ncccc4c3)CC2)cc1 | < 4.00
* Oc1ccc(OCCN2CCC(c3ccccc3)CC2)cc1 [Ex. 127, hydrochloride] | < 3.52

Exercise: What value of measured pIC50 is listed for `OC1(Cc2ccccc2)CCN(CCCOc2ccccc2)CC1` ?
Key: < 4.00

Exercise: What value of measured pIC50 is listed for Fc1ccc(NC2CCN(CCOc3ccc(F)cc3)CC2)cc1 [Ex. 39, hydrochloride] ?
Key: < 4.00

Exercise: What value of measured pIC50 is listed for `COc1ccc(C2CCN(CCCCc3ccccc3)CC2)cc1` ?
Key: < 3.52

Exercise: What value of measured pIC50 is listed for Oc1ccc(OCCN2CCC(O)(Cc3ccc(F)cc3)CC2)cc1 [Ex. 123, hydrochloride] ?
Key: < 3.52
